From: PubChem BioAssay AID1963444

Please provide measured viability, T/C for the entries that follow.
test system: HSSY-II complex spheroid growth, percent test/control; assay: Anticancer human tumor HSSY-II cell line growth inhibition [Asc]; details: second compound 0.0316 µM; first compound 1 µM; active compounds read low;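 also: spheroids exposed to drug for 7 days before reading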
Give bare numbers, in %.

As a guide, the following entries are already answered.
# Compound, viability, T/C [%]
data = [
    ("CCN1CCN(Cc2ccc(Nc3ncc(F)c(-c4cc(F)c5nc(C)n(C(C)C)c5c4)n3)nc2)CC1 + CNC(C)C(=O)NC1CN(S(=O)(=O)c2cccc(S(=O)(=O)N3CCC4CCC(C(=O)NC(c5ccccc5)c5ccccc5)N4C(=O)C(NC(=O)C(C)NC)C3)c2)CCC2CCC(C(=O)NC(c3ccccc3)c3ccccc3)N2C1=O", 23.4),
    ("O=C(c1ccc(F)c(F)c1Nc1ccc(I)cc1F)N1CC(O)([C@@H]2CCCCN2)C1 + CNC(C)C(=O)NC1CN(S(=O)(=O)c2cccc(S(=O)(=O)N3CCC4CCC(C(=O)NC(c5ccccc5)c5ccccc5)N4C(=O)C(NC(=O)C(C)NC)C3)c2)CCC2CCC(C(=O)NC(c3ccccc3)c3ccccc3)N2C1=O", 24.4),
    ("C=CC(=O)N1CCN(c2nc(=O)n(-c3c(C)ccnc3C(C)C)c3nc(-c4c(O)cccc4F)c(F)cc23)C(C)C1 (configuration not stated) + CNC(C)C(=O)NC1CN(S(=O)(=O)c2cccc(S(=O)(=O)N3CCC4CCC(C(=O)NC(c5ccccc5)c5ccccc5)N4C(=O)C(NC(=O)C(C)NC)C3)c2)CCC2CCC(C(=O)NC(c3ccccc3)c3ccccc3)N2C1=O", 89.8),
    ("C=C(F)C(=O)N1CCN(c2nc(OCC3CCCN3C)nc3c2CCN(c2cccc4cccc(Cl)c24)C3)CC1CC#N (configuration not stated) + CNC(C)C(=O)NC1CN(S(=O)(=O)c2cccc(S(=O)(=O)N3CCC4CCC(C(=O)NC(c5ccccc5)c5ccccc5)N4C(=O)C(NC(=O)C(C)NC)C3)c2)CCC2CCC(C(=O)NC(c3ccccc3)c3ccccc3)N2C1=O", 53.9),
    ("O=C(c1cc(Cc2n[nH]c(=O)c3ccccc23)ccc1F)N1CCN(C(=O)C2CC2)CC1 + CNC(C)C(=O)NC1CN(S(=O)(=O)c2cccc(S(=O)(=O)N3CCC4CCC(C(=O)NC(c5ccccc5)c5ccccc5)N4C(=O)C(NC(=O)C(C)NC)C3)c2)CCC2CCC(C(=O)NC(c3ccccc3)c3ccccc3)N2C1=O", 73.3),
]

Each compound below has a recorded value; state its viability, T/C.
1. C#Cc1c(F)ccc2cc(O)cc(-c3ncc4c(N5CC6CCC(C5)N6)nc(OCC56CCCN5CC(F)C6)nc4c3F)c12 (configuration not stated) + CNC(C)C(=O)NC1CN(S(=O)(=O)c2cccc(S(=O)(=O)N3CCC4CCC(C(=O)NC(c5ccccc5)c5ccccc5)N4C(=O)C(NC(=O)C(C)NC)C3)c2)CCC2CCC(C(=O)NC(c3ccccc3)c3ccccc3)N2C1=O
2. COc1c(OCCCN2CCOCC2)ccc2c3n(c(=NC(=O)c4cnc(N)nc4)nc12)CCN3 + CNC(C)C(=O)NC1CN(S(=O)(=O)c2cccc(S(=O)(=O)N3CCC4CCC(C(=O)NC(c5ccccc5)c5ccccc5)N4C(=O)C(NC(=O)C(C)NC)C3)c2)CCC2CCC(C(=O)NC(c3ccccc3)c3ccccc3)N2C1=O

Output line:
94.3
9.94
